System: E. f. 180-1
protocol-summary: standard broth micro-dilution MIC
Format: cell-based
run-parameters: Table 2B; strain 180-1
quantity-kind: MIC E. f. 180-1 (µg/mL)
Express the result in µg/mL but write the number alone.

Q: Param item = CC(=O)NC1C(OC2c3ccc(c(Cl)c3)Oc3cc4cc(c3OC3OC(CO)C(O)C(O)C3NCc3ccc(C=Cc5ccccc5)cc3)Oc3ccc(cc3Cl)CC3NC(=O)C(NCc5ccc(C=Cc6ccccc6)cc5)c5ccc(O)c(c5)Oc5cc(O)cc(c5)C(NC3=O)C(=O)NC4C(=O)NC3C(=O)NC2C(=O)NC(C(=O)O)c2cc(O)cc(OC4OC(CO)C(O)C(O)C4O)c2-c2cc3ccc2O)OC(CO)C(O)C1O (stereo not drawn) [Example 8] ; retrieve measured MIC E. f. 180-1.
Ans: 0.125

Q: CC(=O)NC1C(OC2c3ccc(c(Cl)c3)Oc3cc4cc(c3OC3OC(CO)C(O)C(O)C3NCc3cccc(Oc5ccccc5)c3)Oc3ccc(cc3Cl)CC3NC(=O)C(NCc5cccc(Oc6ccccc6)c5)c5ccc(O)c(c5)Oc5cc(O)cc(c5)C(NC3=O)C(=O)NC4C(=O)NC3C(=O)NC2C(=O)NC(C(=O)O)c2cc(O)cc(OC4OC(CO)C(O)C(O)C4O)c2-c2cc3ccc2O)OC(CO)C(O)C1O (stereo not drawn) [Example 11] , same question.
Ans: 0.25

Q: Same question for CC(=O)NC1C(OC2c3ccc(c(Cl)c3)Oc3cc4cc(c3OC3OC(CO)C(O)C(O)C3N)Oc3ccc(cc3Cl)CC3NC(=O)C(NCc5ccc(-c6ccccc6)cc5)c5ccc(O)c(c5)Oc5cc(O)cc(c5)C(NC3=O)C(=O)NC4C(=O)NC3C(=O)NC2C(=O)NC(C(=O)O)c2cc(O)cc(OC4OC(CO)C(O)C(O)C4O)c2-c2cc3ccc2O)OC(CO)C(O)C1O (stereo not drawn) [Example 2] please.
Ans: 0.25

###

System: E. f. 180-1
protocol-summary: standard broth micro-dilution MIC
Assay type: cell-based
run-parameters: Table 2B; strain 180-1
Would you kindly list MIC E. f. 180-1 for each of these molecules?
Number in µg/mL, nothing else.

Q: // MIC E. f. 180-1 lookup, key: CC(=O)NC1C(OC2c3ccc(c(Cl)c3)Oc3cc4cc(c3OC3OC(CO)C(O)C(O)C3NCc3ccc(OC(F)(F)F)cc3)Oc3ccc(cc3Cl)CC3NC(=O)C(N)c5ccc(O)c(c5)Oc5cc(O)cc(c5)C(NC3=O)C(=O)NC4C(=O)NC3C(=O)NC2C(=O)NC(C(=O)O)c2cc(O)cc(OC4OC(CO)C(O)C(O)C4O)c2-c2cc3ccc2O)OC(CO)C(O)C1O (stereo not drawn)
Ans: 8

Q: Repeat for the following molecule: CC(=O)NC1C(OC2c3ccc(c(Cl)c3)Oc3cc4cc(c3OC3OC(CO)C(O)C(O)C3NCc3ccc(C=Cc5ccccc5)cc3)Oc3ccc(cc3Cl)CC3NC(=O)C(N)c5ccc(O)c(c5)Oc5cc(O)cc(c5)C(NC3=O)C(=O)NC4C(=O)NC3C(=O)NC2C(=O)NC(C(=O)O)c2cc(O)cc(OC4OC(CO)C(O)C(O)C4O)c2-c2cc3ccc2O)OC(CO)C(O)C1O (stereo not drawn)
Ans: 1

###

So I've got a bunch of compounds here, and I need their MIC M. cat M12 values.
Tested on: M. cat M12
protocol-summary: standard broth micro-dilution MIC
Type: cell-based
run-parameters: Table 2C; strain M12

Q: Lab note: need MIC M. cat M12 for CC(=O)NC1C(OC2c3ccc(c(Cl)c3)Oc3cc4cc(c3OC3OC(CO)C(O)C(O)C3NCc3ccc(Oc5ccccc5)cc3)Oc3ccc(cc3Cl)CC3NC(=O)C(NCc5ccc(Oc6ccccc6)cc5)c5ccc(O)c(c5)Oc5cc(O)cc(c5)C(NC3=O)C(=O)NC4C(=O)NC3C(=O)NC2C(=O)NC(C(=O)O)c2cc(O)cc(OC4OC(CO)C(O)C(O)C4O)c2-c2cc3ccc2O)OC(CO)C(O)C1O (stereo not shown) [Example 10] on M. cat M12, anyone have it?
Ans: ≤ .06 µg/mL

Q: Entry to check: CC(=O)NC1C(OC2c3ccc(c(Cl)c3)Oc3cc4cc(c3OC3OC(CO)C(O)C(O)C3NCc3ccc(C=Cc5ccccc5)cc3)Oc3ccc(cc3Cl)CC3NC(=O)C(NCc5ccc(C=Cc6ccccc6)cc5)c5ccc(O)c(c5)Oc5cc(O)cc(c5)C(NC3=O)C(=O)NC4C(=O)NC3C(=O)NC2C(=O)NC(C(=O)O)c2cc(O)cc(OC4OC(CO)C(O)C(O)C4O)c2-c2cc3ccc2O)OC(CO)C(O)C1O (stereo not shown) [Example 8]
Ans: 0.25 µg/mL

Q: Input CC(=O)NC1C(OC2c3ccc(c(Cl)c3)Oc3cc4cc(c3OC3OC(CO)C(O)C(O)C3NCc3cccc(Oc5ccccc5)c3)Oc3ccc(cc3Cl)CC3NC(=O)C(NCc5cccc(Oc6ccccc6)c5)c5ccc(O)c(c5)Oc5cc(O)cc(c5)C(NC3=O)C(=O)NC4C(=O)NC3C(=O)NC2C(=O)NC(C(=O)O)c2cc(O)cc(OC4OC(CO)C(O)C(O)C4O)c2-c2cc3ccc2O)OC(CO)C(O)C1O (stereo not shown) [Example 11]
Ans: ≤ .06 µg/mL

Q: # iterate: CC(=O)NC1C(OC2c3ccc(c(Cl)c3)Oc3cc4cc(c3OC3OC(CO)C(O)C(O)C3NCc3ccc5ccccc5c3)Oc3ccc(cc3Cl)CC3NC(=O)C(NCc5ccc6ccccc6c5)c5ccc(O)c(c5)Oc5cc(O)cc(c5)C(NC3=O)C(=O)NC4C(=O)NC3C(=O)NC2C(=O)NC(C(=O)O)c2cc(O)cc(OC4OC(CO)C(O)C(O)C4O)c2-c2cc3ccc2O)OC(CO)C(O)C1O (stereo not shown) [Example 6]
Ans: ≤ .06 µg/mL

Q: How about this compound: CC(=O)NC1C(OC2c3ccc(c(Cl)c3)Oc3cc4cc(c3OC3OC(CO)C(O)C(O)C3NCc3ccc(-c5ccccc5)cc3)Oc3ccc(cc3Cl)CC3NC(=O)C(NCc5ccc(-c6ccccc6)cc5)c5ccc(O)c(c5)Oc5cc(O)cc(c5)C(NC3=O)C(=O)NC4C(=O)NC3C(=O)NC2C(=O)NC(C(=O)O)c2cc(O)cc(OC4OC(CO)C(O)C(O)C4O)c2-c2cc3ccc2O)OC(CO)C(O)C1O.O=C(O)C(F)(F)F (stereo not shown) [Example 1]
Ans: ≤ .06 µg/mL

Q: // query: CCCCc1ccc(CNC2C(=O)NC3Cc4ccc(c(Cl)c4)Oc4cc5cc(c4OC4OC(CO)C(O)C(O)C4NCc4ccc(CCCC)cc4)Oc4ccc(cc4Cl)C(OC4OC(CO)C(O)C(O)C4NC(C)=O)C4NC(=O)C(NC(=O)C5NC(=O)C(NC3=O)c3cc(O)cc(c3)Oc3cc2ccc3O)c2ccc(O)c(c2)-c2c(OC3OC(CO)C(O)C(O)C3O)cc(O)cc2C(C(=O)O)NC4=O)cc1 (stereo not shown) [Example 5]
Ans: ≤ .06 µg/mL

Q: Quick one: CC(=O)NC1C(OC2c3ccc(c(Cl)c3)Oc3cc4cc(c3OC3OC(CO)C(O)C(O)C3N)Oc3ccc(cc3Cl)CC3NC(=O)C(NCc5ccc(-c6ccccc6)cc5)c5ccc(O)c(c5)Oc5cc(O)cc(c5)C(NC3=O)C(=O)NC4C(=O)NC3C(=O)NC2C(=O)NC(C(=O)O)c2cc(O)cc(OC4OC(CO)C(O)C(O)C4O)c2-c2cc3ccc2O)OC(CO)C(O)C1O (stereo not shown) [Example 2]
Ans: 0.25 µg/mL

###

Test system: S. aureus 489
protocol-summary: standard broth micro-dilution MIC
Assay type: cell-based
run-parameters: Table 2A; strain 489
Protocol: The antibacterial efficacy of the present teicoplanin derivatives is illustrated by the following tables. The minimal inhibitory concentrations (MICs) were determined using a standard broth micro-dilution assay.
quantity-kind: MIC S. aureus 489 (µg/mL)
Write the number in µg/mL without appending the unit.

Q: Entry CC(=O)NC1C(OC2c3ccc(c(Cl)c3)Oc3cc4cc(c3OC3OC(CO)C(O)C(O)C3NCc3ccc(OC(F)(F)F)cc3)Oc3ccc(cc3Cl)CC3NC(=O)C(N)c5ccc(O)c(c5)Oc5cc(O)cc(c5)C(NC3=O)C(=O)NC4C(=O)NC3C(=O)NC2C(=O)NC(C(=O)O)c2cc(O)cc(OC4OC(CO)C(O)C(O)C4O)c2-c2cc3ccc2O)OC(CO)C(O)C1O (centres unmarked) [Example 14] has what MIC S. aureus 489?
Ans: 2

###

Test system: S. h. 415
protocol-summary: standard broth micro-dilution MIC
Assay type: cell-based
run-parameters: Table 2B; strain 415
quantity-kind: MIC S. h. 415

Q: Reported MIC S. h. 415 for CC(=O)NC1C(OC2c3ccc(c(Cl)c3)Oc3cc4cc(c3OC3OC(CO)C(O)C(O)C3NCc3ccc(OC(F)(F)F)cc3)Oc3ccc(cc3Cl)CC3NC(=O)C(N)c5ccc(O)c(c5)Oc5cc(O)cc(c5)C(NC3=O)C(=O)NC4C(=O)NC3C(=O)NC2C(=O)NC(C(=O)O)c2cc(O)cc(OC4OC(CO)C(O)C(O)C4O)c2-c2cc3ccc2O)OC(CO)C(O)C1O (stereo not drawn) [Example 14] : what is it?
Ans: > 128 µg/mL

Q: Note, next up: CCCCc1ccc(CNC2C(=O)NC3Cc4ccc(c(Cl)c4)Oc4cc5cc(c4OC4OC(CO)C(O)C(O)C4NCc4ccc(CCCC)cc4)Oc4ccc(cc4Cl)C(OC4OC(CO)C(O)C(O)C4NC(C)=O)C4NC(=O)C(NC(=O)C5NC(=O)C(NC3=O)c3cc(O)cc(c3)Oc3cc2ccc3O)c2ccc(O)c(c2)-c2c(OC3OC(CO)C(O)C(O)C3O)cc(O)cc2C(C(=O)O)NC4=O)cc1 (stereo not drawn) [Example 5]
Ans: 4 µg/mL

Q: Queued: CC(=O)NC1C(OC2c3ccc(c(Cl)c3)Oc3cc4cc(c3OC3OC(CO)C(O)C(O)C3NCc3cccc(Oc5ccccc5)c3)Oc3ccc(cc3Cl)CC3NC(=O)C(NCc5cccc(Oc6ccccc6)c5)c5ccc(O)c(c5)Oc5cc(O)cc(c5)C(NC3=O)C(=O)NC4C(=O)NC3C(=O)NC2C(=O)NC(C(=O)O)c2cc(O)cc(OC4OC(CO)C(O)C(O)C4O)c2-c2cc3ccc2O)OC(CO)C(O)C1O (stereo not drawn) [Example 11]
Ans: 16 µg/mL

Q: Entry to check: CC(=O)NC1C(OC2c3ccc(c(Cl)c3)Oc3cc4cc(c3OC3OC(CO)C(O)C(O)C3NCc3ccc(OC(F)(F)F)cc3)Oc3ccc(cc3Cl)CC3NC(=O)C(NCc5ccc(OC(F)(F)F)cc5)c5ccc(O)c(c5)Oc5cc(O)cc(c5)C(NC3=O)C(=O)NC4C(=O)NC3C(=O)NC2C(=O)NC(C(=O)O)c2cc(O)cc(OC4OC(CO)C(O)C(O)C4O)c2-c2cc3ccc2O)OC(CO)C(O)C1O (stereo not drawn) [Example 13]
Ans: 8 µg/mL

Q: Then CC(=O)NC1C(OC2c3ccc(c(Cl)c3)Oc3cc4cc(c3OC3OC(CO)C(O)C(O)C3NCc3ccc(C=Cc5ccccc5)cc3)Oc3ccc(cc3Cl)CC3NC(=O)C(NCc5ccc(C=Cc6ccccc6)cc5)c5ccc(O)c(c5)Oc5cc(O)cc(c5)C(NC3=O)C(=O)NC4C(=O)NC3C(=O)NC2C(=O)NC(C(=O)O)c2cc(O)cc(OC4OC(CO)C(O)C(O)C4O)c2-c2cc3ccc2O)OC(CO)C(O)C1O (stereo not drawn) [Example 8] ?
Ans: > 64 µg/mL

Q: Next compound up: CC(=O)NC1C(OC2c3ccc(c(Cl)c3)Oc3cc4cc(c3OC3OC(CO)C(O)C(O)C3NCc3ccc(Oc5ccccc5)cc3)Oc3ccc(cc3Cl)CC3NC(=O)C(NCc5ccc(Oc6ccccc6)cc5)c5ccc(O)c(c5)Oc5cc(O)cc(c5)C(NC3=O)C(=O)NC4C(=O)NC3C(=O)NC2C(=O)NC(C(=O)O)c2cc(O)cc(OC4OC(CO)C(O)C(O)C4O)c2-c2cc3ccc2O)OC(CO)C(O)C1O (stereo not drawn) [Example 10]
Ans: 8 µg/mL
